All values here come from ChEMBL document CHEMBL4354830.

Test: Metabolic stability in monkey liver microsomes assessed as intrinsic clearance per mg protein measured upto 60 mins by LC/MS-MS analysis
Format: ADME, Macaca mulatta, Microsome
Settings: rhesus monkey, read-out: CLH
RECORDED_METRIC: microsomal CLint (µL/min/mg)
One number for each entry, in µL/min/mg.

Recorded microsomal CLint (compound COc1ccccc1S(=O)(=O)Nc1ccc2c3c(cc(-n4cnc(C)c4)nc13)C(=O)N2C ): 135

====

Biological target: Bromodomain-containing protein 4 (Homo sapiens)
Assay: Displacement of tetra-acetylated histone H4 peptide (1-21) from recombinant human N-terminal His-tagged BRD4 BD2 (349 to 460 residues) expressed in Escherichia coli incubated for 30 mins followed by further incubation with tetra-acetylated histone H4 peptide (1-21) for 30 mins by Alphascreen assay
yes if IC50 is below 2000 nM. no if not; exact matches included in no.

Answered cases to consult:
> print(dat)
                                smiles.data                              assay.system  cat
1  COc1ccccc1S(=O)(=O)Nc1ccc2c3c(cc(-n4cnc(C)c4)nc13)C(=O)N2C  Bromodomain-containing protein 4 (Homo sapiens)   no
2  COc1ccccc1S(=O)(=O)Nc1ccc2c3c(cc(-c4ccco4)nc13)C(=O)N2C  Bromodomain-containing protein 4 (Homo sapiens)  yes
3  CN1C(=O)c2cccc3c(NS(=O)(=O)c4ccccc4Cl)ccc1c23  Bromodomain-containing protein 4 (Homo sapiens)   no
4  CCN1C(=O)c2cccc3c(NS(=O)(=O)c4ccc(Cl)cc4)ccc1c23  Bromodomain-containing protein 4 (Homo sapiens)   no
5  CCCn1cc(-c2cc3c4c(ccc(NS(=O)(=O)c5ccccc5OC)c4c2)N(C)C3=O)cn1  Bromodomain-containing protein 4 (Homo sapiens)  yes

Record COc1ccccc1S(=O)(=O)Nc1ccc2c3c(cccc13)C(=O)N2C : is its IC50 strictly below 2000 nM? no

Record COc1ccccc1S(=O)(=O)Nc1ccc2c3c(cc(-n4ccnc4)nc13)C(=O)N2C : is its IC50 strictly below 2000 nM? no

====

Answer each item with its documented ΔTm.
Target: Bromodomain-containing protein 4 (Homo sapiens)
Test: Binding affinity to recombinant human N-terminal His-tagged BRD4 BD1 (44 to 170 residues) expressed in Escherichia coli assessed as change in melting temperature at 10 uM by SYPRO Orange based differential scanning fluorimetry
Give bare numbers, in °C.

Sample answers from the record:
> print(dat)
                                   compound  recorded.metric  observed.measurement
1  CN1C(=O)c2cccc3c(NS(=O)(=O)c4ccccc4Cl)ccc1c23              ΔTm                  5.37
2  CN1C(=O)c2cccc3c(NS(=O)(=O)c4ccccc4)ccc1c23              ΔTm                  5.72
3  Cc1ccccc1NS(=O)(=O)c1ccc2c3c(cccc13)C(=O)N2C              ΔTm                  2.23
4  CN1C(=O)c2cccc3c(NS(=O)(=O)c4cccnc4)ccc1c23              ΔTm                   2.3
5  CC(Nc1ccc2c3c(cccc13)C(=O)N2C)c1ccccc1 (stereo not given)              ΔTm                  3.15

Dear reader, for each entry below, please note its ΔTm.
1. CN1C(=O)c2cccc3c(NS(=O)(=O)c4c(F)cccc4F)ccc1c23
2. CN1C(=O)c2ccnc3c(NS(=O)(=O)c4ccc(Cl)cc4)ccc1c23
3. CN1C(=O)c2cccc3c(NS(=O)(=O)c4c(Cl)cccc4Cl)ccc1c23

1. 3.73
2. 6.53
3. 2.75

Dear reader, for each entry below, please note its ΔTm.
1. CN1C(=O)c2ccnc3c(NS(=O)(=O)c4ccc(Cl)cc4F)ccc1c23
2. CN1C(=O)c2cccc3c(NS(=O)(=O)c4ccc(F)cc4Cl)ccc1c23

2.31
6.23

====

Experiment: Metabolic stability in dog assessed as intrinsic hepatic clearance by LC/MS-MS analysis
Assay type: ADME, Canis lupus familiaris
Conditions: read-out: CLH
RECORDED_METRIC: CLint scaled (mL/min/kg)
Answers are plain numbers, in mL/min/kg.

Recorded CLint scaled (compound COc1ccccc1S(=O)(=O)Nc1ccc2c3c(cc(-n4cnc(C)c4)nc13)C(=O)N2C ): 192

====

Molecular target: Chromatin remodeling regulator CECR2 (Homo sapiens)
Assay: Binding affinity to CECR2 (unknown origin) assessed as change in melting temperature at 10 uM by SYPRO Orange based differential scanning fluorimetry
condition met if ΔTm is below 0.1 °C. condition not met if not; exact matches included in condition not met.

Answered cases to consult:
> print(dat)
                                   compound                cat
1   CN1C(=O)c2cccc3c(NC(=O)c4ccccc4)ccc1c23  condition not met
2  CC(Nc1ccc2c3c(cccc13)C(=O)N2C)c1ccccc1 (stereo not given)  condition not met
3       CN1C(=O)c2cccc3c(NCc4ccccc4)ccc1c23  condition not met
4  CN1C(=O)c2cccc3c(S(=O)(=O)Nc4ccccc4)ccc1c23      condition met

Below: the item to evaluate.
Record CN1C(=O)c2cccc3c(NS(=O)(=O)c4ccccc4)ccc1c23 : is its ΔTm strictly below 0.1 °C? condition met

====

Target: Bromodomain-containing protein 4 (Homo sapiens)
Assay: Displacement of tetra-acetylated histone H4 peptide (1-21) from recombinant human N-terminal His-tagged BRD4 BD1 (44 to 170 residues) expressed in Escherichia coli incubated for 30 mins followed by further incubation with tetra-acetylated histone H4 peptide (1-21) for 30 mins by Alphascreen assay
RECORDED_METRIC: pIC50
Answers are plain numbers, as −log10 of the molar value.

Sample answers from the record:
> print(dat)
                                smiles.data  recorded.metric  observed.measurement
1  COc1ccccc1S(=O)(=O)Nc1ccc2c3c(cc(-c4ccoc4)cc13)C(=O)N2C            pIC50                  6.79
2  COc1cc(Cl)ccc1S(=O)(=O)Nc1ccc2c3c(cc(-c4cnn(C5CC5)c4)cc13)C(=O)N2C            pIC50                  7.43

Dear reader, for each entry below, please note its pIC50.
1. COc1ccccc1S(=O)(=O)Nc1ccc2c3c(cc(-n4ccnc4)nc13)C(=O)N2C
2. COc1ccccc1S(=O)(=O)Nc1ccc2c3c(ccnc13)C(=O)N2C
3. Cc1ccc(S(=O)(=O)Nc2ccc3c4c(cccc24)C(=O)N3C)cc1

1: 6.05; 2: 6.69; 3: 6.26

====

Test: Metabolic stability in monkey assessed as intrinsic hepatic clearance by LC/MS-MS analysis
Type: ADME, Macaca mulatta
Details: rhesus monkey; read-out: CLH
RECORDED_METRIC: CLint scaled (mL/min/kg)
Give bare numbers, in mL/min/kg.

Recorded CLint scaled (compound COc1ccccc1S(=O)(=O)Nc1ccc2c3c(cc(-n4cnc(C)c4)nc13)C(=O)N2C ): 194

====

Target: Bromodomain-containing protein 4 (Homo sapiens, UniProt O60885)
Experiment: Displacement of tetra-acetylated histone H4 peptide (1-21) from recombinant human N-terminal His-tagged BRD4 BD2 (349 to 460 residues) expressed in Escherichia coli incubated for 30 mins followed by further incubation with tetra-acetylated histone H4 peptide (1-21) for 30 mins by Alphascreen assay
Answer each item with its documented log10(IC50).
Note the log scale: values are log10 of IC50 expressed in nM.

Dear reader, for each entry below, please note its log10(IC50).
1. COc1ccccc1S(=O)(=O)Nc1ccc2c3c(cc(N4CCC(CO)CC4)nc13)C(=O)N2C
2. COc1ccccc1S(=O)(=O)Nc1ccc2c3c(cc(NCCN4CCCCC4)nc13)C(=O)N2C
3. Cc1ccc(S(=O)(=O)Nc2ccc3c4c(cccc24)C(=O)N3C)cc1
4. CCCn1cc(-c2cc3c4c(ccc(NS(=O)(=O)c5ccc(Cl)cc5OC)c4c2)N(C)C3=O)cn1
5. COc1ccccc1S(=O)(=O)Nc1ccc2c3c(cc(N4CCOCC4)nc13)C(=O)N2C
6. Cc1ccc(S(=O)(=O)Nc2ccc3c4c(ccnc24)C(=O)N3C)cc1

[4.47, 3.85, 3.36, 2.51, 2.91, 3.82]

Dear reader, for each entry below, please note its log10(IC50).
1. CN1C(=O)c2ccnc3c(NS(=O)(=O)c4ccc(Cl)cc4)ccc1c23
2. COc1ccccc1S(=O)(=O)Nc1ccc2c3c(cc(-c4cnn(C5CC5)c4)nc13)C(=O)N2C
3. COc1ccccc1S(=O)(=O)Nc1ccc2c3c(cc(N4CCN(C(=O)OC(C)(C)C)CC4)nc13)C(=O)N2C

1. 4.31
2. 2.03
3. 3.34

====

Answer each item with its documented ΔTm.
Biological target: Bromodomain-containing protein 4 (Homo sapiens)
Assay: Binding affinity to recombinant human N-terminal His-tagged BRD4 BD1 (44 to 170 residues) expressed in Escherichia coli assessed as change in melting temperature at 10 uM by SYPRO Orange based differential scanning fluorimetry
// return the numeric value with its unit appended

> print(dat)
                                smiles.data  recorded.metric  observed.measurement
1       CN1C(=O)c2cccc3c(NCc4ccccc4)ccc1c23              ΔTm                2.7 °C
2  O=C1Nc2ccc(NS(=O)(=O)c3ccc(Cl)cc3)c3cccc1c23              ΔTm               3.73 °C
3  COc1ccccc1S(=O)(=O)Nc1ccc2c3c(ccnc13)C(=O)N2C              ΔTm               7.64 °C
4  COc1ccccc1S(=O)(=O)Nc1ccc2c3c(cccc13)C(=O)N2C              ΔTm               8.72 °C
5  Cc1ccc(S(=O)(=O)Nc2ccc3c4c(cccc24)C(=O)N3C)cc1              ΔTm               7.36 °C

Dear reader, for each entry below, please note its ΔTm.
1. CN1C(=O)c2cccc3c(NS(=O)(=O)c4cccc(Cl)c4F)ccc1c23
2. COc1cc(Cl)ccc1S(=O)(=O)Nc1ccc2c3c(cccc13)C(=O)N2C
3. CN1C(=O)c2cccc3c(NS(=O)(=O)c4ccccc4OC(F)(F)F)ccc1c23

1. 4.83 °C
2. 7.1 °C
3. 4.73 °C
